Attribution: patent US11541107B2

- Tested on: HLA-A*24
- Measurement description: MHC binding assay, UV-ligand exchange with beta2m ELISA, HLA-A*24
- Set-up: species or system human
- Conditions: binding to HLA-A*24 ranged by peptide exchange yield (UV-ligand exchange, beta2m ELISA)
Measured endpoint: Peptide exchange

220 (SYSEIKDFL; listed as Homo sapiens) [compound 220] ... ++++ (>=75% = ++++)
213 (SYAPPSEDLFL; listed as Homo sapiens) [compound 213] ... ++ (20%-49% = ++)
292 (FYPQIINTF; listed as Homo sapiens) [compound 292] ... ++++ (>=75% = ++++)
207 (LYSDAFKFIVF; listed as Homo sapiens) [compound 207] ... +++ (50%-75% = +++)
302 (LYLPVHYGF; listed as Homo sapiens) [compound 302] ... +++ (50%-75% = +++)
267 (SFLNIEKTEILF; listed as Homo sapiens) [compound 267] ... ++ (20%-49% = ++)
274 (KQLDIANYELF; listed as Homo sapiens) [compound 274] ... ++++ (>=75% = ++++)
218 (LYSELNKWSF; listed as Homo sapiens) [compound 218] ... +++ (50%-75% = +++)
158 (IYEETRGVLKVF; listed as Homo sapiens) [compound 158] ... +++ (50%-75% = +++)
237 (KYVGQLAVL; listed as Homo sapiens) [compound 237] ... +++ (50%-75% = +++)

Any idea what Peptide exchange was measured for 206 (NYLDVATFL; listed as Homo sapiens) [compound 206] ?
++++ (>=75% = ++++)

Entry 131 (EYLDRIGQLFF; listed as Homo sapiens) [compound 131] : reported Peptide exchange = ?
+++ (50%-75% = +++)

Quick one: Peptide exchange of 303 (LYSVIKEDF; listed as Homo sapiens) [compound 303] ?
+++ (50%-75% = +++)

Can you look up the measured Peptide exchange of 127 (QYFTGNPLF; listed as Homo sapiens) [compound 127] for me?
+++ (50%-75% = +++)

* * *

- System: HLA-A*24
- Measurement description: MHC binding assay, UV-ligand exchange with beta2m ELISA, HLA-A*24
- Parameters: species or system human
- Conditions: binding to HLA-A*24 ranged by peptide exchange yield (UV-ligand exchange, beta2m ELISA)
Measured endpoint: Peptide exchange

272 (RYVFPLPYL; listed as Homo sapiens) [compound 272] ... ++++ (>=75% = ++++)
194 (VYQSLSNSL; listed as Homo sapiens) [compound 194] ... +++ (50%-75% = +++)
388 (IYGEKTYAF; listed as Homo sapiens) [compound 388] ... +++ (50%-75% = +++)
117 (IYLSDLTYI; listed as Homo sapiens) [compound 117] ... +++ (50%-75% = +++)
270 (YYSQESKVLYL; listed as Homo sapiens) [compound 270] ... +++ (50%-75% = +++)
376 (VYTPVASRQSL; listed as Homo sapiens) [compound 376] ... +++ (50%-75% = +++)
263 (RYILENHDF; listed as Homo sapiens) [compound 263] ... +++ (50%-75% = +++)
188 (GYKTFFNEF; listed as Homo sapiens) [compound 188] ... +++ (50%-75% = +++)
163 (RYLTISNLQF; listed as Homo sapiens) [compound 163] ... ++++ (>=75% = ++++)
275 (KYGTLDVTF; listed as Homo sapiens) [compound 275] ... ++++ (>=75% = ++++)

State the recorded Peptide exchange for this entry: 118 (KYLNSVQYI; listed as Homo sapiens) [compound 118]
+++ (50%-75% = +++)

// returns reported Peptide exchange for input 276 (QYLDVLHAL; listed as Homo sapiens) [compound 276]
++++ (>=75% = ++++)

For the substance shown here, 343 (NYLGGTSTI; listed as Homo sapiens) [compound 343] , give the reported Peptide exchange.
+++ (50%-75% = +++)
